Ref: paper PMC10397247

- Study system: T1, 4H1552-AA
- T1 chain: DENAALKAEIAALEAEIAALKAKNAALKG
- Protocol: two-hybrid library CCmax;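 further: natural log of median RNA to DNA barcode read ratio; higher means stronger binding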
- Conditions: mean of both orientations
Classify by measured interaction score: TRUE if it is equal to or exceeds -0.5, FALSE if it is smaller.

Binder	Group
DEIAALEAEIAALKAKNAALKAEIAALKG [4H122-AA]	FALSE
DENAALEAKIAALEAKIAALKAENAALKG [4H1324-AA]	TRUE
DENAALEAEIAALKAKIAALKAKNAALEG [4H1135-AA]	TRUE
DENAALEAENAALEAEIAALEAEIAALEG [4H1153-AA]	FALSE
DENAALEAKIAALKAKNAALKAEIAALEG [4H1401-AA]	FALSE
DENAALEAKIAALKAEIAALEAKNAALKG [4H1352-AA]	TRUE
